Test: Biodistribution and in vivo binding specificity in PC-3 tumor-bearing BALB/c nu/nu mice
Conditions: male, BALB/c nu/nu, mouse, bone, iv, 45 pmol, total radioactivity, male BALB/c nu/nu mice with PC-3 xenografts, 45 pmol i.v., 3 h p.i.; read-out: Bone uptake
Text: All animal studies were planned and performed in accordance with the national legislation on the protection of laboratory animals and the Ethic Committee for Animal Research of the Uppsala University approved the study plans. Randomly divided groups of 4 mice per data point were used in all experiments. […] BALB/c nu/nu male mice with PC-3 xenografts (weight 20±1 g at the time of the experiment) were used for tumor targeting and imaging studies. […]
PARAMETER: tissue uptake at 3 h (%ID/g)
One number for each entry, in %ID/g.

// query Item under review: CC(C)C[C@H](NC(=O)C[C@H](O)[C@H](CC(C)C)NC(=O)[C@H](Cc1c[nH]cn1)NC(=O)CNC(=O)[C@@H](NC(=O)[C@H](C)NC(=O)[C@H](Cc1c[nH]c2ccccc12)NC(=O)[C@H](CCC(N)=O)NC(=O)[C@@H](Cc1ccccc1)NC(=O)COCCOCCNC(=O)CN1CCN(CC(=O)O)CCN(CC(=O)O)CC1)C(C)C)C(N)=O [[^18F]AlF-NOTA-P2-RM26] . Reported tissue uptake at 3 h?
// result 0.17

====

Molecular target: murine GRPRs (Mus musculus)
Construct: from tissue; host or cells: organs of male NMRI mice, in vivo (pancreas, stomach, small intestine and others)
Sequence (P21729 whole entry): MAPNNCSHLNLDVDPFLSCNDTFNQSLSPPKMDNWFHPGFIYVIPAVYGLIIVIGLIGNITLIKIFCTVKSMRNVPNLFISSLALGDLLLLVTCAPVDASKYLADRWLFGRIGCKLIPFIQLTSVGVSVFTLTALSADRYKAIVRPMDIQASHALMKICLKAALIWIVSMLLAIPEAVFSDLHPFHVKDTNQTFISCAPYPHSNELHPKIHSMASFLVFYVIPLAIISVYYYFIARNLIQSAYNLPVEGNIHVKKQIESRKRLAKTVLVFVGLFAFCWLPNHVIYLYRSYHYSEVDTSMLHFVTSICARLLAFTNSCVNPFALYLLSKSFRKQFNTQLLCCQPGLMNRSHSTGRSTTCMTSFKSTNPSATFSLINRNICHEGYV
Assay: Biodistribution and in vivo binding specificity in NMRI mice
Conditions: blood, iv, total radioactivity, male NMRI mice, 45 pmol i.v., 1 h p.i., read-out: Blood uptake
PARAMETER: tissue uptake at 1 h (%ID/g)
Answers are plain numbers, in %ID/g.

// query Given the entry CC(C)C[C@H](NC(=O)C[C@H](O)[C@H](CC(C)C)NC(=O)[C@H](Cc1c[nH]cn1)NC(=O)CNC(=O)[C@@H](NC(=O)[C@H](C)NC(=O)[C@H](Cc1c[nH]c2ccccc12)NC(=O)[C@H](CCC(N)=O)NC(=O)[C@@H](Cc1ccccc1)NC(=O)COCCOCCNC(=O)CN1CCN(CC(=O)O)CCN(CC(=O)O)CC1)C(C)C)C(N)=O [[^18F]AlF-NOTA-P2-RM26] , what tissue uptake at 1 h was observed with murine GRPRs (Mus musculus)?
// result 0.3

====

Assay: Biodistribution and in vivo binding specificity in PC-3 tumor-bearing BALB/c nu/nu mice
Conditions: male, BALB/c nu/nu, mouse, liver, iv, total radioactivity, male BALB/c nu/nu mice with PC-3 xenografts, 45 pmol i.v., blocked (co-injected 20 nmol non-labeled peptide), 1 h p.i.; read-out: Liver uptake
PARAMETER: tissue uptake at 1 h (%ID/g)
Answers are plain numbers, in %ID/g.

// query Consider the molecule shown here: CC(C)C[C@H](NC(=O)C[C@H](O)[C@H](CC(C)C)NC(=O)[C@H](Cc1c[nH]cn1)NC(=O)CNC(=O)[C@@H](NC(=O)[C@H](C)NC(=O)[C@H](Cc1c[nH]c2ccccc12)NC(=O)[C@H](CCC(N)=O)NC(=O)[C@@H](Cc1ccccc1)NC(=O)COCCOCCNC(=O)CN1CCN(CC(=O)O)CCN(CC(=O)O)CC1)C(C)C)C(N)=O [[^18F]AlF-NOTA-P2-RM26] What is its recorded tissue uptake at 1 h?
// result 1.6

Numbers sourced from paper PMC3849266.
